Molecular target: T1, A1/A3-C1-C2 heterodimer of factor VIII, plasma-derived (human, UniProt P00451 20-391; P00451 1709-2351)
T1 sequence 1: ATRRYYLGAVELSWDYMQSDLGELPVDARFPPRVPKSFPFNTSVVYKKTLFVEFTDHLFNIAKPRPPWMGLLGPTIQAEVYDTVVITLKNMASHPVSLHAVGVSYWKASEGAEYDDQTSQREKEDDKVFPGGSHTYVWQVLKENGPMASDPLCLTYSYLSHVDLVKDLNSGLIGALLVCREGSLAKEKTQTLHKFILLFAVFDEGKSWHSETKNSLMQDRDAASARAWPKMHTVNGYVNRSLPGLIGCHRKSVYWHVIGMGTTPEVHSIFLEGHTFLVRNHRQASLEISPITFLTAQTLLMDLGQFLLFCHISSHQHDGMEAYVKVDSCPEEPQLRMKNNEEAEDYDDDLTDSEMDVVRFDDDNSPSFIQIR
T1 sequence 2: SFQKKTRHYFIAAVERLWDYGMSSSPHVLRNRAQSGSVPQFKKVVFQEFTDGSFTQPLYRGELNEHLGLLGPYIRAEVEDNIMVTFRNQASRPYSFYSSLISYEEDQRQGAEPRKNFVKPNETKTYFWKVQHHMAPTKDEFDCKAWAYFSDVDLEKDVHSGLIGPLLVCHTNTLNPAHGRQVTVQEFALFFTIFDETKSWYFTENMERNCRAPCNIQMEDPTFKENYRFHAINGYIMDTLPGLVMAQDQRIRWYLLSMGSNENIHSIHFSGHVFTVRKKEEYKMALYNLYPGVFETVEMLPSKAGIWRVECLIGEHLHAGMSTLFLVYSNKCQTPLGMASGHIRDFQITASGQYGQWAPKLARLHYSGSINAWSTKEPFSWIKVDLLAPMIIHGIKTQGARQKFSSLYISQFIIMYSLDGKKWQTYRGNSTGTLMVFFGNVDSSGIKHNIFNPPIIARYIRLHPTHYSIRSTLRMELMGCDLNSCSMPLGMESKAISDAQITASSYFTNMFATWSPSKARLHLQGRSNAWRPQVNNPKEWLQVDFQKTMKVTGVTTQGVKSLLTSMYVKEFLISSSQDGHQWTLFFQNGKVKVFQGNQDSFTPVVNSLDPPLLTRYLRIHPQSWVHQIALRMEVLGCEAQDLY
Assay: cell-based or functional assay
PROPERTY: Activity of reconstituted FVIIIa (% of wt activity)

BINDER	OBSERVED RESULT
recombinant A2 mutant #14 (Lys-496 to Ala) (other, hx-A2 form from Sf9 cells) SGAKKHPKTWVHYIAAEEEDWDYAPLVLAPDDRSYKSQYLNNGPQRIGRKYKKVRFMAYTDETFKTREAIQHESGILGPLLYGEVGDTLLIIFKNQASRPYNIYPHGITDVRPLYSRRLPKGVAHLKDFPILPGEIFKYKWTVTVEDGPTKSDPRCLTRYYSSFVNMERDLASGLIGPLLICYKESVDQRGNQIMSDKRNVILFSVFDENRSWYLTENIQRFLPNPAGVQLEDPEFQASNIMHSINGYVFDSLQLSVCLHEVAYWYILSIGAQTDFLSVFFSGYTFKHKMVYEDTLTLFPFSGETVFMSMENPGLWILGCHNSDFRNRGMTALLKVSSCDKNTGDYYEDSYEDISAYLLSKNNAIEPR	263 % of wt activity

Please give measured Activity of reconstituted FVIIIa (% of wt activity) of the following entry: recombinant A2 mutant #1 (Lys-376 to Ala) (other, hx-A2 form from Sf9 cells; not shown: N-terminal hx leader (6xHis tag, vector-derived linker, factor Xa site)) SGAAKHPKTWVHYIAAEEEDWDYAPLVLAPDDRSYKSQYLNNGPQRIGRKYKKVRFMAYTDETFKTREAIQHESGILGPLLYGEVGDTLLIIFKNQASRPYNIYPHGITDVRPLYSRRLPKGVKHLKDFPILPGEIFKYKWTVTVEDGPTKSDPRCLTRYYSSFVNMERDLASGLIGPLLICYKESVDQRGNQIMSDKRNVILFSVFDENRSWYLTENIQRFLPNPAGVQLEDPEFQASNIMHSINGYVFDSLQLSVCLHEVAYWYILSIGAQTDFLSVFFSGYTFKHKMVYEDTLTLFPFSGETVFMSMENPGLWILGCHNSDFRNRGMTALLKVSSCDKNTGDYYEDSYEDISAYLLSKNNAIEPR
73.9 % of wt activity

Please give measured Activity of reconstituted FVIIIa (% of wt activity) of the following entry: recombinant A2 mutant #12 (Leu-491 to Ala) (other, hx-A2 form from Sf9 cells) SGAKKHPKTWVHYIAAEEEDWDYAPLVLAPDDRSYKSQYLNNGPQRIGRKYKKVRFMAYTDETFKTREAIQHESGILGPLLYGEVGDTLLIIFKNQASRPYNIYPHGITDVRPLYSRRAPKGVKHLKDFPILPGEIFKYKWTVTVEDGPTKSDPRCLTRYYSSFVNMERDLASGLIGPLLICYKESVDQRGNQIMSDKRNVILFSVFDENRSWYLTENIQRFLPNPAGVQLEDPEFQASNIMHSINGYVFDSLQLSVCLHEVAYWYILSIGAQTDFLSVFFSGYTFKHKMVYEDTLTLFPFSGETVFMSMENPGLWILGCHNSDFRNRGMTALLKVSSCDKNTGDYYEDSYEDISAYLLSKNNAIEPR
518 % of wt activity

Please give measured Activity of reconstituted FVIIIa (% of wt activity) of the following entry: recombinant A2 mutant #10 (Arg-489 to Ala) (other, hx-A2 form from Sf9 cells) SGAKKHPKTWVHYIAAEEEDWDYAPLVLAPDDRSYKSQYLNNGPQRIGRKYKKVRFMAYTDETFKTREAIQHESGILGPLLYGEVGDTLLIIFKNQASRPYNIYPHGITDVRPLYSARLPKGVKHLKDFPILPGEIFKYKWTVTVEDGPTKSDPRCLTRYYSSFVNMERDLASGLIGPLLICYKESVDQRGNQIMSDKRNVILFSVFDENRSWYLTENIQRFLPNPAGVQLEDPEFQASNIMHSINGYVFDSLQLSVCLHEVAYWYILSIGAQTDFLSVFFSGYTFKHKMVYEDTLTLFPFSGETVFMSMENPGLWILGCHNSDFRNRGMTALLKVSSCDKNTGDYYEDSYEDISAYLLSKNNAIEPR
130 % of wt activity

Please give measured Activity of reconstituted FVIIIa (% of wt activity) of the following entry: recombinant wild-type A2 domain of human factor VIII (hx-A2) (other, Secreted from Sf9 cells as hx-A2 and purified on mAb 8860; Removal of the tag is not reported; also called wt-A2; recombinant A2; not shown: N-terminal hx leader (6xHis tag, vector-derived linker, factor Xa site)) SGAKKHPKTWVHYIAAEEEDWDYAPLVLAPDDRSYKSQYLNNGPQRIGRKYKKVRFMAYTDETFKTREAIQHESGILGPLLYGEVGDTLLIIFKNQASRPYNIYPHGITDVRPLYSRRLPKGVKHLKDFPILPGEIFKYKWTVTVEDGPTKSDPRCLTRYYSSFVNMERDLASGLIGPLLICYKESVDQRGNQIMSDKRNVILFSVFDENRSWYLTENIQRFLPNPAGVQLEDPEFQASNIMHSINGYVFDSLQLSVCLHEVAYWYILSIGAQTDFLSVFFSGYTFKHKMVYEDTLTLFPFSGETVFMSMENPGLWILGCHNSDFRNRGMTALLKVSSCDKNTGDYYEDSYEDISAYLLSKNNAIEPR
100 % of wt activity

Please give measured Activity of reconstituted FVIIIa (% of wt activity) of the following entry: recombinant A2 mutant #16 (His-499 to Ala as printed in Tables 1 and 2; Lys^499 in the text) (other, hx-A2 form from Sf9 cells; also called Lys^499 Ala mutant; not shown: N-terminal hx leader (6xHis tag, vector-derived linker, factor Xa site)) SGAKKHPKTWVHYIAAEEEDWDYAPLVLAPDDRSYKSQYLNNGPQRIGRKYKKVRFMAYTDETFKTREAIQHESGILGPLLYGEVGDTLLIIFKNQASRPYNIYPHGITDVRPLYSRRLPKGVKHLADFPILPGEIFKYKWTVTVEDGPTKSDPRCLTRYYSSFVNMERDLASGLIGPLLICYKESVDQRGNQIMSDKRNVILFSVFDENRSWYLTENIQRFLPNPAGVQLEDPEFQASNIMHSINGYVFDSLQLSVCLHEVAYWYILSIGAQTDFLSVFFSGYTFKHKMVYEDTLTLFPFSGETVFMSMENPGLWILGCHNSDFRNRGMTALLKVSSCDKNTGDYYEDSYEDISAYLLSKNNAIEPR
128 % of wt activity

Please give measured Activity of reconstituted FVIIIa (% of wt activity) of the following entry: recombinant A2 mutant #13 (Lys-493 to Ala) (other, hx-A2 form from Sf9 cells) SGAKKHPKTWVHYIAAEEEDWDYAPLVLAPDDRSYKSQYLNNGPQRIGRKYKKVRFMAYTDETFKTREAIQHESGILGPLLYGEVGDTLLIIFKNQASRPYNIYPHGITDVRPLYSRRLPAGVKHLKDFPILPGEIFKYKWTVTVEDGPTKSDPRCLTRYYSSFVNMERDLASGLIGPLLICYKESVDQRGNQIMSDKRNVILFSVFDENRSWYLTENIQRFLPNPAGVQLEDPEFQASNIMHSINGYVFDSLQLSVCLHEVAYWYILSIGAQTDFLSVFFSGYTFKHKMVYEDTLTLFPFSGETVFMSMENPGLWILGCHNSDFRNRGMTALLKVSSCDKNTGDYYEDSYEDISAYLLSKNNAIEPR
267 % of wt activity
